Data origin: the supplement of paper PMC10567573

B1: DVL3 (parent)
chain: FPELGYSYGGGSASSQHSEGSRSS

Variants of: B1
test protocol: protein stability index of a GFP-peptide fusion (GPS, HEK-293T) (PSI 1-6); higher = more stable;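 note: lentivirally expressed fusions sorted by FACS into six bins by GFP to DsRed ratio, PSI derived from sequencing read proportions per bin multiplied by bin number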
assay setup: c terminus: a fixed tail appended
quantity kind: protein stability index
// no unit string in output, number only

Data request: Quickly give me recorded protein stability index for `L4C`
Data returned: 2.82

Data request: Quickly give me recorded protein stability index for `P2S`
Data returned: 3.34

Data request: Quickly give me recorded protein stability index for `S15I`
Data returned: 2.9

Data request: Quickly give me recorded protein stability index for `G10Y`
Data returned: 2.45

Data request: Quickly give me recorded protein stability index for `G10E`
Data returned: 3.95

Data request: Quickly give me recorded protein stability index for `R22N`
Data returned: 3.56

Data request: Quickly give me recorded protein stability index for `S14H`
Data returned: 3.17

Data request: Quickly give me recorded protein stability index for `S24K`
Data returned: 3.42

Data request: Quickly give me recorded protein stability index for `E19F`
Data returned: 3.64

Data request: Quickly give me recorded protein stability index for `G9F`
Data returned: 2.43

Data request: Quickly give me recorded protein stability index for `G9N`
Data returned: 3.77

Data request: Quickly give me recorded protein stability index for `E3L`
Data returned: 3.87

Data request: Quickly give me recorded protein stability index for `G5F`
Data returned: 2.33

Data request: Quickly give me recorded protein stability index for `S23M`
Data returned: 2.33

Data request: Quickly give me recorded protein stability index for `S24L`
Data returned: 2.94

Data request: Quickly give me recorded protein stability index for `S7Q`
Data returned: 3.22

Data request: Quickly give me recorded protein stability index for `S24A`
Data returned: 3.5

Data request: Quickly give me recorded protein stability index for `L4A`
Data returned: 3.47

Data request: Quickly give me recorded protein stability index for `E19H`
Data returned: 2.38

Data request: Quickly give me recorded protein stability index for `H17W`
Data returned: 2.77

Data request: Quickly give me recorded protein stability index for `S7K`
Data returned: 3.21

Data request: Quickly give me recorded protein stability index for `H17I`
Data returned: 2.74
